assay: Oral bioavailability in BALB/c mouse at 50 mg/kg measured upto 24 hrs by HPLC-MS/MS analysis; format: ADME, organism-based; details: in vivo
Parameter measured: bioavailability

Entry CCN(c1cc(-c2ccc([C@@H]3C[C@H]3N(CC3CCOCC3)C(=O)OC(C)(C)C)cc2)cc(C(=O)NCc2c(C)cc(C)[nH]c2=O)c1C)C1CCOCC1 (racemic) needs its bioavailability filled in; supply it.
32.9%

---

assay: AUC (0 to infinity) in BALB/c mouse at 50 mg/kg,ip measured upto 24 hrs by HPLC-MS/MS analysis; format: ADME, organism-based; conditions: in vivo
Parameter measured: AUC(0-inf) (µg·h/mL)
Numbers only; they are read as µg·h/mL.

Retrieve AUC(0-inf) measured for CCN(c1cc(-c2ccc([C@@H]3C[C@H]3N(CC3CCOCC3)C(=O)OC(C)(C)C)cc2)cc(C(=O)NCc2c(C)cc(C)[nH]c2=O)c1C)C1CCOCC1 (racemic) and print it.
112
